SYSTEM: human ApoC3 (human)
Sequence (chain, as listed by the source): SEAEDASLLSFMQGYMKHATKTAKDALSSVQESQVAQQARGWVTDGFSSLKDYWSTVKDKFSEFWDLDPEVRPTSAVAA
ASSAY_METHOD_TEXT: SPR pH 5.5, antibody immobilized
binders and their reported Kd

Example cases with answers are listed next.
mAb2 (antibody, V domains shown) VH: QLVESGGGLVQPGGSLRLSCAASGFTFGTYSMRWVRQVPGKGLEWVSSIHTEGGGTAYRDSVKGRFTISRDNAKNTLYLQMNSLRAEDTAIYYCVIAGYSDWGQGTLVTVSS VL: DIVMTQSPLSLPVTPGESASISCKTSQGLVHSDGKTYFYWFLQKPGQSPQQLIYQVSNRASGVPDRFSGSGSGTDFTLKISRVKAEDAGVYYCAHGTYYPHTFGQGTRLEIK    290 nM
mAb10 (antibody, V domains shown) VH: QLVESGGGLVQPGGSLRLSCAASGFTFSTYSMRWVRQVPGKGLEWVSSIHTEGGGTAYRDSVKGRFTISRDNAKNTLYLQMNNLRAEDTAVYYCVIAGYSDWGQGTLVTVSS VL: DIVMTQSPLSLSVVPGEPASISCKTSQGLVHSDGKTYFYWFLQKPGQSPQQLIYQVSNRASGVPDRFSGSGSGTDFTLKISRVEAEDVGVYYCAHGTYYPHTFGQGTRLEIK    334 nM
mAb9 (antibody, V domains shown) VH: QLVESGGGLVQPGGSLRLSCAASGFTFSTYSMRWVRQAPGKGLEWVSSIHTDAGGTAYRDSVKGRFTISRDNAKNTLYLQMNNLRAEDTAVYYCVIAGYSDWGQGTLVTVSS VL: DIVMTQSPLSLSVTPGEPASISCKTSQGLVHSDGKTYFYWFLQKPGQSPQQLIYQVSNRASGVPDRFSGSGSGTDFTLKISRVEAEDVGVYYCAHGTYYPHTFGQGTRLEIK    541 nM
mAb19 (antibody, V domains shown) VH: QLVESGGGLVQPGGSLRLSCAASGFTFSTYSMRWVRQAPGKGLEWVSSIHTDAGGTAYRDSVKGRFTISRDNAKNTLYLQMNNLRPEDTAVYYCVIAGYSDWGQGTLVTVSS VL: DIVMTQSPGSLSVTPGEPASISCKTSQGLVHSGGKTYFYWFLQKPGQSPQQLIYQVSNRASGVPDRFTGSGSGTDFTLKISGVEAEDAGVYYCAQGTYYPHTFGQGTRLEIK    157 nM

Now for the binder whose Kd we want.
(Q) Tell me measured Kd for mAb5 (antibody, V domains shown) VH: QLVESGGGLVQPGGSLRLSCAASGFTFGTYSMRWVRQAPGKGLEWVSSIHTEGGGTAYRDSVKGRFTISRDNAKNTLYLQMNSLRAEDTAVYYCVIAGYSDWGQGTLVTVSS VL: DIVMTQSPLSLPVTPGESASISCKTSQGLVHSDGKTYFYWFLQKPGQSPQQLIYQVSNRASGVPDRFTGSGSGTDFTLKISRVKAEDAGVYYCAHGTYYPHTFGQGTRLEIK please.
(A) 408 nM
